- Subject of test: Creatine kinase M-type (Homo sapiens) (UniProt P06732)
- Sequence (P06732 whole entry): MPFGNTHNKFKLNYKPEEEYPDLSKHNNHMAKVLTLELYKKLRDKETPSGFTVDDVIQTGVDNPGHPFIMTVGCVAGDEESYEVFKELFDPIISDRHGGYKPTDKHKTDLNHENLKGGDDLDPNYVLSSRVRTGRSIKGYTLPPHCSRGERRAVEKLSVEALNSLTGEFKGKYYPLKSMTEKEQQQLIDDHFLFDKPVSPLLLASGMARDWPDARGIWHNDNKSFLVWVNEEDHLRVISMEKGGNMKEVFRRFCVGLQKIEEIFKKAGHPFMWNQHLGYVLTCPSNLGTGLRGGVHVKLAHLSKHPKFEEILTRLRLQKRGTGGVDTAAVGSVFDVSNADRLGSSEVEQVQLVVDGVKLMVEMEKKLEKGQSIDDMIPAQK
- Assay method text: Activation of human CK-MM assessed as increase in enzyme activity at 80 uM relative to control
compounds and their reported Activity
Your answer should be a plain number; it is taken to be in %.

Some compounds with known Activity results, for comparison:
structure_notation=CC(C)(O)CCC[C@](C)(O)[C@H]1CC[C@]2(C)[C@@H]1[C@H](O)C[C@@H]1[C@@]3(C)CC[C@H](O)C(C)(C)[C@@H]3CC[C@]12C subject_of_test="Creatine kinase M-type (Homo sapiens) (UniProt P06732)" readout=Activity measured_number=15.6
structure_notation=CC(C)=CCC[C@](C)(O)[C@H]1CC[C@]2(C)[C@@H]1[C@H](O)C[C@@H]1[C@@]3(C)CC[C@H](O)C(C)(C)[C@@H]3[C@@H](O)C[C@]12C subject_of_test="Creatine kinase M-type (Homo sapiens) (UniProt P06732)" readout=Activity measured_number=13.6
structure_notation=CC1(C)CCC[C@](C)([C@H]2CC[C@]3(C)[C@@H]2[C@H](O)C[C@@H]2[C@@]4(C)CC[C@H](O)C(C)(C)[C@@H]4CC[C@]23C)O1 subject_of_test="Creatine kinase M-type (Homo sapiens) (UniProt P06732)" readout=Activity measured_number=15.4

As a next step, examine the compound that follows.
[in] Identify the reported Activity for the following entry. CC(C)=CCC[C@@](C)(O)[C@H]1CC[C@]2(C)[C@@H]1[C@H](O)C[C@@H]1[C@@]3(C)CC[C@H](O)C(C)(C)[C@@H]3CC[C@]12C
[out] 10.2

----------
- Subject of test: Creatine kinase M-type (Homo sapiens)
- Assay method text: Activation of human CK-MM assessed as increase in enzyme activity at 5 uM relative to control
Readout: Activity (%)
Your answer should be a plain number; it is taken to be in %.

Some compounds with known Activity results, for comparison:
structure_notation=CC(C)=C[C@H]1C[C@](C)(O)[C@@H]2[C@H]3CC[C@@H]4[C@@]5(C)CC[C@H](O)C(C)(C)[C@@H]5CC[C@@]4(C)[C@@]34CO[C@@]2(C4)O1 readout=Activity measured_number=16.9
structure_notation=CC(C)(O)CCC[C@](C)(O)[C@H]1CC[C@]2(C)[C@@H]1[C@H](O)C[C@@H]1[C@@]3(C)CC[C@H](O)C(C)(C)[C@@H]3CC[C@]12C readout=Activity measured_number=17.3

As a next step, examine the compound that follows.
[in] Identify the reported Activity for the following entry. CC(C)=CCC[C@](C)(O)[C@H]1CC[C@]2(C)[C@@H]1[C@H](O)C[C@@H]1[C@@]3(C)CC[C@H](O)C(C)(C)[C@@H]3CC[C@]12C
[out] 29.6

----------
- Subject of test: Creatine kinase M-type (Homo sapiens)
- Assay method text: Activation of human CK-MM assessed as increase in enzyme activity at 40 uM relative to control
Readout: Activity (%)
Your answer should be a plain number; it is taken to be in %.

Some compounds with known Activity results, for comparison:
structure_notation=CC(C)(O)CCC[C@](C)(O)[C@H]1CC[C@]2(C)[C@@H]1[C@H](O)C[C@@H]1[C@@]3(C)CC[C@H](O)C(C)(C)[C@@H]3CC[C@]12C readout=Activity measured_number=7.5
structure_notation=CC1(C)CCC[C@](C)([C@H]2CC[C@]3(C)[C@@H]2[C@H](O)C[C@@H]2[C@@]4(C)CC[C@H](O)C(C)(C)[C@@H]4CC[C@]23C)O1 readout=Activity measured_number=14.4
structure_notation=CC(C)=C[C@H]1C[C@](C)(O)[C@@H]2[C@H]3CC[C@@H]4[C@@]5(C)CC[C@H](O)C(C)(C)[C@@H]5CC[C@@]4(C)[C@@]34CO[C@@]2(C4)O1 readout=Activity measured_number=5.7

[in] Identify the reported Activity for the following entry. CC(C)=CCC[C@](C)(O)[C@H]1CC[C@]2(C)[C@@H]1[C@H](O)C[C@@H]1[C@@]3(C)CC[C@H](O)C(C)(C)[C@@H]3[C@@H](O)C[C@]12C
[out] 19.7

[in] Identify the reported Activity for the following entry. CC(C)=CCC[C@@](C)(O)[C@H]1CC[C@]2(C)[C@@H]1[C@H](O)C[C@@H]1[C@@]3(C)CC[C@H](O)C(C)(C)[C@@H]3CC[C@]12C
[out] 14.3
